Experiment: Pharmacokinetic experiment, single intragastric administration, plasma by HPLC-UV
Type: in vivo, SD rats
Details: SD (Sprague-Dawley), rat, plasma, po, 200 mg/kg, Group A: CUR 200 mg kg^−1 oral alone; read-out: Tmax of DHC (converted)
Method: An Agilent 1200 HPLC system was used. […] The flow rate was set at 1 ml min^−1 and detection wavelength was 420, 340 and 323 nm. Injection volume was 5 μL. The column temperature was set at 30°C. Plasma or brain homogenate of SD rats was taken 50 μL, internal standard solution of 50 μL and protein precipitator of 150 μL were added. After eddy oscillation for 3 min, supernatant was separated by centrifugation. […]
observed-property: Tmax (min)
Kindly answer with a numeric value in min, unit omitted.

Exercise: I am curious: what Tmax value has been reported for COc1cc(/C=C/C(=O)CC(=O)CCc2ccc(O)c(OC)c2)ccc1O [DHC, Dihydrocurcumin] ?
Key: 26

---

Experiment: Pharmacokinetic experiment, single intragastric administration, plasma by HPLC-UV
Type: in vivo, SD rats
Conditions: SD, rat, plasma, po, Mean concentrations ±sd, ILE, plasma, Group C (CUR 200 mg kg^−1 and ILE 150 mg kg^−1 oral), 20 min
Description: An Agilent 1200 HPLC system was used. […] The flow rate was set at 1 ml min^−1 and detection wavelength was 420, 340 and 323 nm. Injection volume was 5 μL. The column temperature was set at 30°C. Plasma or brain homogenate of SD rats was taken 50 μL, internal standard solution of 50 μL and protein precipitator of 150 μL were added. After eddy oscillation for 3 min, supernatant was separated by centrifugation. […]
observed-property: concentration at 20 min (ng/mL)
Kindly answer with a numeric value in ng/mL, unit omitted.

Exercise: I am curious: what concentration at 20 min value has been reported for O=C(/C=C/c1ccc2c(c1)OCO2)N1CCCCC1 [ILE, Ilepcimide, reference compound] ?
Key: 1300

---

Assay: Pharmacokinetic experiment, single intragastric administration, plasma by HPLC-UV
Format: in vivo, SD rats
Conditions: SD, rat, plasma, po, Mean concentrations ±sd, ILE, plasma, Group C (CUR 200 mg kg^−1 and ILE 150 mg kg^−1 oral), 270 min
observed-property: concentration at 270 min
Number first, unit second.

Exercise: I am curious: what concentration at 270 min value has been reported for O=C(/C=C/c1ccc2c(c1)OCO2)N1CCCCC1 [ILE, Ilepcimide, reference compound] ?
Key: 2200 ng/mL

---

Assay: Pharmacokinetic experiment, single intragastric administration, plasma by HPLC-UV
Assay type: in vivo, SD rats
Conditions: SD (Sprague-Dawley), rat, plasma, po, 200 mg/kg, Group C: CUR 200 mg kg^−1 and ILE 150 mg kg^−1 oral; read-out: Cmax of DHC
Description: An Agilent 1200 HPLC system was used. […] The flow rate was set at 1 ml min^−1 and detection wavelength was 420, 340 and 323 nm. Injection volume was 5 μL. The column temperature was set at 30°C. Plasma or brain homogenate of SD rats was taken 50 μL, internal standard solution of 50 μL and protein precipitator of 150 μL were added. After eddy oscillation for 3 min, supernatant was separated by centrifugation. […]
observed-property: Cmax

Exercise: I am curious: what Cmax value has been reported for COc1cc(/C=C/C(=O)CC(=O)CCc2ccc(O)c(OC)c2)ccc1O [DHC, Dihydrocurcumin] ?
Key: 9200 ng/mL
